System: MOLT-4 leukemia
METHOD SUMMARY: NCI tumour cell line growth inhibition, 48 h
PARAMETER: TGI

Before answering, review these 2 worked examples.
> print(dat)
                                   compound  measurement
1  COc1cc2c(cc1C)NC(=O)/C2=C/c1c(C)nc2sc(C)cn12     > 100 µM
2             COc1ccc2nc(-c3ccc(O)cc3)cn2c1     > 100 µM

What does the data say about its TGI? Entry: Cc1cccc(C(O)c2ccccn2)c1O (stereo not drawn)
> 100 µM

###

Test system: A549 NSCLC
METHOD SUMMARY: NCI tumour cell line growth inhibition, 48 h
PARAMETER: TGI

> print(dat)
                                   compound  measurement
1  CCCC[Si](CCCC)(CCCC)O[C@@H](/C=C/C(=O)OCC)[C@H](Cc1ccccc1)O[Si](CCCC)(CCCC)CCCC     > 100 µM
2  CCOC(=O)C(SCCO)C(C(=O)OCC)n1cc(C)c(=O)[nH]c1=O (stereo not given)     > 100 µM
3  CC1CC(=O)NC2CC1C2(C)C (stereo not given)     > 100 µM
4  CC1=NN(c2ccccc2)C(=O)C1C(=O)C(=O)Nc1ccc(C)cc1C (stereo not given)     > 100 µM

Test system A549 NSCLC; read-out TGI; what value for "FC(F)(F)c1ccccc1C=NC12CC3CC(CC(C3)C1)C2" ?
> 100 µM
